# Test system: D(2) dopamine receptor (Rattus norvegicus, UniProt P61169)
# Sequence (P61169 whole entry): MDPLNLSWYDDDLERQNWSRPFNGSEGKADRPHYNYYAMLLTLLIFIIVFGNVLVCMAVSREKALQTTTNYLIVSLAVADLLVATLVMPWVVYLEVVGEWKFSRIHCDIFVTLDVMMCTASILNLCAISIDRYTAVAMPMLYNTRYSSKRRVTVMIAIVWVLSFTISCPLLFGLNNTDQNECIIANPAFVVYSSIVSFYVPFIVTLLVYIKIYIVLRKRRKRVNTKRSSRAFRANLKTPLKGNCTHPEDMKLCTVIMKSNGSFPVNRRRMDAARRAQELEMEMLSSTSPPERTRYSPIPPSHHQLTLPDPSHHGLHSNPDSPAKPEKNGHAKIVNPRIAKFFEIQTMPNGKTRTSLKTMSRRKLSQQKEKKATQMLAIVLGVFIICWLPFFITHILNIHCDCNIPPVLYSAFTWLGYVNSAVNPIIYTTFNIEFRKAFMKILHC
# Experiment notes: Displacement of [3H]spiperone from dopaminergic D2 receptor in rat striatal membrane
# Ki annotations
Attribute measured: Ki (µM)

>>> df
                                    compound  attribute_measured  unit_abbreviation  assay_value
 0  COc1ccccc1N1CCN(CCCCN2C(=O)C[C@H](NC(=O)C34CC5CC(CC(C5)C3)C4)C2=O)CC1                  Ki                 µM         1.78
 1  COc1ccccc1N1CCN(CCCCN2C(=O)C[C@H](NC(=O)C3CCCCC3)C2=O)CC1                  Ki                 µM         2.08
 2   O=C1CCC(=O)N1CCCCN1CCN(c2cccc(Cl)c2)CC1                  Ki                 µM          7.8
 3  O=C(N[C@H]1CC(=O)N(CCCCN2CCN(c3cccc(Cl)c3)CC2)C1=O)C1CCCCC1                  Ki                 µM         2.13
 4  COc1ccccc1N1CCN(CCCCNC(=O)[C@@H]2CCCN2C(=O)C2CCCCC2)CC1                  Ki                 µM         3.59
 5  O=C(N[C@H]1CC(=O)N(CCCCN2CCN(c3cccc(Cl)c3)CC2)C1=O)C1CCCC1                  Ki                 µM         12.4
 6  O=C(CC1CC2CCC1C2)N[C@H]1CC(=O)N(CCCCN2CCN(c3cccc(Cl)c3)CC2)C1=O (stereo partly specified)                  Ki                 µM        0.776
 7  COc1ccccc1N1CCN(CCCCN2C(=O)C[C@H](NC(=O)CC3CC4CCC3C4)C2=O)CC1 (stereo partly specified)                  Ki                 µM         0.88
 8  COc1ccccc1N1CCN(CCCCN2C(=O)C[C@H](NC(=O)C3CCCC3)C2=O)CC1                  Ki                 µM        0.905
 9     COc1ccccc1N1CCN(CCCCN2C(=O)CCC2=O)CC1                  Ki                 µM         0.49
10  O=C1C[C@H](NC(=O)C23CC4CC(CC(C4)C2)C3)C(=O)N1CCCCN1CCN(c2cccc(Cl)c2)CC1                  Ki                 µM         21.2
